system: NB7; assay: cells; format: functional, cell-based, Homo sapiens; conditions: Homo sapiens, NB7;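 also: growth inhibition of NB7 cells, read out with a cell viability assay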
Description: SANGER: Inhibition of human NB7 cell growth in a cell viability assay.
observationType: IC50

* CCN(CC)CCNC(=O)c1c(C)[nH]c(/C=C2\C(=O)Nc3ccc(F)cc32)c1C | > 8000 nM
* COc1cc2c(Nc3ccc(NC(=O)c4ccccc4)cc3)ncnc2cc1OCCCN1CCOCC1 | 1750 nM
* COc1cc2ncn(-c3cc(OCc4ccccc4C(F)(F)F)c(C(N)=O)s3)c2cc1OC [GW843682X] | > 256 nM
* C#Cc1cccc(Nc2ncnc3cc(OCCOC)c(OCCOC)cc23)c1 | > 2000 nM
* CC(C)c1ccccc1Cc1cc(C(=O)Nc2ccc(S(=O)(=O)c3ccccc3C(C)(C)C)cc2)c(O)c(O)c1O | 29.3 nM
* CC(C)CCN1c2nc(Nc3cc(F)c(O)c(F)c3)ncc2N(C)C(=O)C1C (stereo not drawn) | > 5000 nM
* N[C@@H](CSC(c1ccccc1)(c1ccccc1)c1ccccc1)C(=O)O | > 5120 nM
* Nc1cccc2c1CN(C1CCC(=O)NC1=O)C2=O (stereo not drawn) [LENALIDOMIDE] | > 5000 nM
